Would you mind telling me the reported pEC50 of each entry?
target: Cell division control protein 42 homolog (Homo sapiens); assay: inhibition of fluorescent GTP binding to constitutively active Cdc42 – biochemical, multiplex bead flow cytometry, Bodipy-FL-GTP, dose response (AID 1333); conditions: bead-based flow cytometry;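 further: potency of compounds that compete with and reduce fluorescent GTP binding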
Answers are plain numbers, as −log10 of the molar value.

Check out these entries, answers already filled in.
Molecule | System | pEC50
COC(=O)c1cccnc1SCCc1ccccc1 | Cell division control protein 42 homolog (Homo sapiens) | 4.62
CC(C)C(NCc1c(Cl)cccc1Cl)C(=O)O (configuration not stated) | Cell division control protein 42 homolog (Homo sapiens) | 5.23

# batch size: 2; output pEC50 per entry
1. Cc1nn(Cc2ccccc2)c(Cl)c1C(=O)O
2. O=C(C#Cc1ccccc1)c1cccc([N+](=O)[O-])c1

4.86
4.87

Hey, quick one: what's pEC50 for each of these?
1. CCOC(=O)c1cc([N+](=O)[O-])c([N+](=O)[O-])cc1NC(C)=O
2. COc1ccc(C2CC(c3ccccc3)=NN2c2ccc(S(N)(=O)=O)cc2)cc1 (configuration not stated)
3. CCCN1C(=O)/C(=C/C=C2\N(CC)c3ccccc3C2(C)C)SC1=S
4. O=C(O)c1ccccc1NCCc1ccc(Cl)cc1
5. Cc1cccc2cc(CN(Cc3cccs3)C(c3nnnn3C3CCCC3)C(C)C)c(=O)[nH]c12 (configuration not stated)

[5.14, 5.09, 5.25, 6.05, 5.79]

For each of the molecules below, state pEC50.
1. Cc1cc(C(=O)Cn2nc(C(=O)O)c3ccccc3c2=O)c(C)n1-c1ccc(OC(F)F)cc1
2. CCCc1nc2c(=O)n(C)c(=O)nc-2n(C)n1
3. CCc1ccc(NS(=O)(=O)c2ccc3[nH]cc(C(=O)N4CCc5ccccc54)c(=O)c3c2)cc1
4. O=C(O)c1ccccc1Sc1ncnc2sc3c(c12)CCC3
5. NS(=O)(=O)c1ccc(N2N=C(c3ccccc3)CC2c2cccc(F)c2)cc1 (configuration not stated)

1. 5.31
2. 5.75
3. 4.30
4. 5.74
5. 5.02

Please state pEC50 for every molecule in the list that follows.
1. Cc1nc2c(=O)n(C)c(=O)nc-2n(C)n1
2. O=C(O)/C=C/c1cn(Cc2ccccc2)nc1-c1cccs1
3. O=C(Nc1ccccc1)C1=C(c2ccccc2)S(=O)(=O)CCS1(=O)=O

1. 5.79
2. 5.66
3. 4.36

Please state, for each entry, its recorded pEC50.
1. Cc1ccc(SC(CC(=O)c2ccc(C(C)(C)C)cc2)C(=O)O)cc1 (configuration not stated)
2. CS(=O)(=O)c1ccc(C(=O)OCC(=O)NC(=O)C2CCCCC2)cc1[N+](=O)[O-]
3. OC(CNCCc1ccc(Cl)cc1)COc1ccc2ccccc2c1 (configuration not stated)
4. O=C(NCc1ccc2c(c1)OCO2)c1ccc(CSCc2cccc(Cl)c2)o1
5. Cc1cc(C)c(C)c(C(=O)c2ccccc2C(=O)O)c1C
6. COc1cccc(-n2nnnc2S(C)(=O)=O)c1
7. CCn1nc(/C=C/c2ccccc2)nc2c(=O)n(C)c(=O)nc1-2

5.29
4.89
4.95
4.69
5.31
4.81
5.84

// each molecule listed below needs its pEC50
1. Cc1ccc(NC(=O)C2=C(c3ccccc3)S(=O)(=O)CCS2(=O)=O)cc1
2. O=C(O)c1cc(Sc2ccc(Cl)cc2)nc2ccccc12
3. COc1ccc(-c2cc(C#N)nc(N3CCNCC3)n2)cc1

4.23
4.73
4.57

Please look at the items below and tell me pEC50 for each one, in order.
1. CCOc1ccc(/C=C2\SC(N3CCc4ccccc4C3)=NC2=O)cc1
2. O=C(Nc1nnc(-c2ccc3c(c2)OCCO3)o1)c1ccc(Cc2ccccc2)cc1
3. N#Cc1c(-c2ccccc2)nc(SCC(=O)Nc2ccccc2)[nH]c1=O

4.78
5.55
5.78

# batch size: 7; output pEC50 per entry
1. O=C(C#Cc1ccc(F)cc1)c1ccc([N+](=O)[O-])cc1
2. O=C(C#CC1CCCCC1)c1ccc([N+](=O)[O-])cc1
3. COc1cccc(NC(=O)COC(=O)/C=C/c2ccc(Cl)cc2Cl)c1
4. Cc1ccc(C)c(OCCn2cc(C(=O)O)c3ccccc32)c1
5. Cc1ccc(-n2c(-c3cnccn3)n[nH]c2=S)c(Br)c1
6. CC(=O)c1ccc(C#CC(=O)c2ccc([N+](=O)[O-])cc2)cc1
7. O=C(NCc1cccs1)c1cccnc1C(=O)O

1. 5.45
2. 4.34
3. 5.45
4. 6.45
5. 4.27
6. 6.00
7. 5.37

// provenance: PubChem BioAssay AID1333
